molecular target: Human PDE9 (PDE9A2) (Homo sapiens (Human))
Sequence (O76083 other isoform, or with tags, fused parts or gaps): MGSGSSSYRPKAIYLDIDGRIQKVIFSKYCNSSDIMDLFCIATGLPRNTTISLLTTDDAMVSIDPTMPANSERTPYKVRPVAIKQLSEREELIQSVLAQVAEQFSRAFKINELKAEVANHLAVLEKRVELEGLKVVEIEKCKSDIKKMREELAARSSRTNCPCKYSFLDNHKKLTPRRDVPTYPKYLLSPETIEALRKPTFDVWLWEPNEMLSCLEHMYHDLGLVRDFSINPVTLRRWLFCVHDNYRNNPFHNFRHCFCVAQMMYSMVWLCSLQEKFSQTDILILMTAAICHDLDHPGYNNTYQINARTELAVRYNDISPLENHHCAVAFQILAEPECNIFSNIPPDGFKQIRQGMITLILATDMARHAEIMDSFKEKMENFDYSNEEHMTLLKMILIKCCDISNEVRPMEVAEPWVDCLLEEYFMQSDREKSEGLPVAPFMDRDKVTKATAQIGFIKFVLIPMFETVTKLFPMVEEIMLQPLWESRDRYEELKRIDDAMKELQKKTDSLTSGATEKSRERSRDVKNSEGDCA
Some compounds, each annotated with its measured log10 of Ki.
# log10 transformed; quantity=Ki; unit=nM

Take a look at these entries with their results.
Simply: CC(c1ccc(C(F)(F)F)nc1)n1nc(C#N)c2c(=O)[nH]c(N(C)C(c3ncccn3)C3CCC3)nc21 (single isomer, unassigned) [Example 29] , Human PDE9 (PDE9A2) (Homo sapiens (Human)), log10 of Ki = 0.95

Simply: CC(Cc1nc2c(c(C#N)nn2C(C)c2ccc(C(F)(F)F)nc2)c(=O)[nH]1)c1ncccn1 (single isomer, unassigned) [Example 84] , Human PDE9 (PDE9A2) (Homo sapiens (Human)), log10 of Ki = 2.05

Simply: CCC(c1ncccn1)N(C)c1nc2c(c(C#N)nn2C(C)c2ccc(C3CC3)nc2)c(=O)[nH]1 (single isomer, unassigned) [Example 3] , Human PDE9 (PDE9A2) (Homo sapiens (Human)), log10 of Ki = 0.26

Simply: CCC(c1ncc(F)cn1)N(C)c1nc2c(c(C#N)nn2C(C)c2ccc(C3CC3)nc2)c(=O)[nH]1 (single isomer, unassigned) [Example 65] , Human PDE9 (PDE9A2) (Homo sapiens (Human)), log10 of Ki = -1.52

***
Simply: C=CCCC(c1ncccn1)N(C)c1nc2c(c(C#N)nn2C(C)c2ccc(C(F)(F)F)nc2)c(=O)[nH]1 (single isomer, unassigned) [Example 43] , Human PDE9 (PDE9A2) (Homo sapiens (Human)), log10 of Ki = 1.59

Simply: CC(c1ccc(C(F)(F)F)nc1)n1nc(C#N)c2c(=O)[nH]c(N(C)C(c3ncccn3)C3CC3)nc21 (single isomer, unassigned) [Example 27] , Human PDE9 (PDE9A2) (Homo sapiens (Human)), log10 of Ki = 0.82

* * *

// each record: one item and its Ki for Human PDE9 (PDE9A2) (Homo sapiens (Human))
Unit nM implied. Number only.

Take a look at these entries with their results.
Simply: CC(C)C(c1ncccn1)N(C)c1nc2c(c(C#N)nn2C(C)c2ccc(C(F)(F)F)nc2)c(=O)[nH]1 (single isomer, unassigned) [Example 24] , Human PDE9 (PDE9A2) (Homo sapiens (Human)), Ki = 69.2

Simply: CCC(c1ncc(C(F)F)cn1)N(C)c1nc2c(c(C#N)nn2C(C)c2ccc(C(F)(F)F)nc2)c(=O)[nH]1 (single isomer, unassigned) [Example 17] , Human PDE9 (PDE9A2) (Homo sapiens (Human)), Ki = 0.01

Simply: CCC(c1ccc(F)cn1)N(C)c1nc2c(c(C#N)nn2C(C)c2ccc(C(F)(F)F)nc2)c(=O)[nH]1 (single isomer, unassigned) [Example 34] , Human PDE9 (PDE9A2) (Homo sapiens (Human)), Ki = 0.16

Simply: CCC(c1ncc(F)cn1)N(C)c1nc2c(c(C#N)nn2C(C)c2ccc(C3CC3)cc2)c(=O)[nH]1 (single isomer, unassigned) [Example 70] , Human PDE9 (PDE9A2) (Homo sapiens (Human)), Ki = 0.02

Simply: CC(c1ccc(C(F)(F)F)nc1)n1nc(C#N)c2c(=O)[nH]c(N3CCC3c3ccc(F)cc3)nc21 (single isomer, unassigned) [Example 58] , Human PDE9 (PDE9A2) (Homo sapiens (Human)), Ki = 7.8

***
Simply: CCC(c1ncccn1)N(C)c1nc2c(c(C#N)nn2C(C)c2ccc(C3CC3)nc2)c(=O)[nH]1 (single isomer, unassigned) [Example 2] , Human PDE9 (PDE9A2) (Homo sapiens (Human)), Ki = 5.24

Simply: C=CCCC(c1ncccn1)N(C)c1nc2c(c(C#N)nn2C(C)c2ccc(C(F)(F)F)nc2)c(=O)[nH]1 (single isomer, unassigned) [Example 42] , Human PDE9 (PDE9A2) (Homo sapiens (Human)), Ki = 13.2

Simply: CCC(c1ncc(F)cn1)N(C)c1nc2c(c(C#N)nn2C(C)c2ccc(C3CC3)nc2)c(=O)[nH]1 (single isomer, unassigned) [Example 66] , Human PDE9 (PDE9A2) (Homo sapiens (Human)), Ki = 0.6

Simply: CCC(c1ncc(F)cn1)N(C)c1nc2c(c(C#N)nn2C(C)C2CCOCC2)c(=O)[nH]1 (single isomer, unassigned) [Example 37] , Human PDE9 (PDE9A2) (Homo sapiens (Human)), Ki = 2.67

Simply: CC(c1ccc(C(F)(F)F)nc1)n1nc(C#N)c2c(=O)[nH]c(N3CCC3c3ccc(F)cc3)nc21 (single isomer, unassigned) [Example 49] , Human PDE9 (PDE9A2) (Homo sapiens (Human)), Ki = 22.7

Simply: CCC(c1ncc(C(F)F)cn1)N(C)c1nc2c(c(C#N)nn2C(C)c2ccc(C(F)(F)F)nc2)c(=O)[nH]1 (single isomer, unassigned) [Example 18] , Human PDE9 (PDE9A2) (Homo sapiens (Human)), Ki = 2.07
